// provenance: patent US20200317776A1

Target: T1, human TREM2 Fc fusion (entire TREM2 ECD; only one Fc arm fused to TREM2) (human, UniProt Q9NZC2 19-174)
T1 construct: also called huTREM2-Fc; recombinant hTREM2
T1 sequence: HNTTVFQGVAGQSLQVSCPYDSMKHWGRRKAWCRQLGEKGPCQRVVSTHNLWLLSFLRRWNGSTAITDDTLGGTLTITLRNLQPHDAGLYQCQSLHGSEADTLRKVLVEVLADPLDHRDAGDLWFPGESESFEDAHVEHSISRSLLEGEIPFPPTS
Test: BLI, IgG, avid
REPORTED ENDPOINT: Kd (nM)

>>> measured_value("AL2p-20 (antibody, V domains shown, Fab and IgG formats under one id) VH: QVQLVQSGAEVKKPGSSVKVSCKASGYAFSSHWMNWVRQAPGQGLEWMGRIYPGDGDTNYARKFQGRVTITADESTSTAYMELSSLRSEDTAVYYCARLLRNQPGESYAMDYWGQGTLVTVSS VL: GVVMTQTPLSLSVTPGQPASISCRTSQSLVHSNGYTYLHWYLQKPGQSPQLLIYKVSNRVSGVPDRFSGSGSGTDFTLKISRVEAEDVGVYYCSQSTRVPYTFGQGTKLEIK")
0.35
>>> measured_value("AL2p-13 (antibody, V domains shown, Fab and IgG formats under one id; also called AL22-13) VH: QVQLVQSGAEVKKPGSSVKVSCKASGYAFSSHWMNWVRQAPGQGLEWMGRIYPGDGDTNYAQKFKGRVTITADESTSTAYMELSSLRSEDTAVYYCARLLRNQPGESYAMDYWGQGTLVTVSS VL: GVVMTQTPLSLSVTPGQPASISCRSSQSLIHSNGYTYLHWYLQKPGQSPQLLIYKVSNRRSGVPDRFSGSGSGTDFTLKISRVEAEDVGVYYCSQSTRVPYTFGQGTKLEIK")
0.34
>>> measured_value("AL2p-16 (antibody, V domains shown, Fab and IgG formats under one id) VH: QVQLVQSGAEVKKPGSSVKVSCKASGYAFSSHWMNWVRQAPGQGLEWMGRIYPGDGDTNYAQKFRGRVTITADESTSTAYMELSSLRSEDTAVYYCARLLRNQPGASYAMDYWGQGTLVTVSS VL: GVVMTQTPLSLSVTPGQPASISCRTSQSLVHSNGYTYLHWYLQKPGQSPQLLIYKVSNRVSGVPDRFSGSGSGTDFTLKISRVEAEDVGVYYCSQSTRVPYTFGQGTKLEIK")
0.222
>>> measured_value("AL2p-21 (antibody, V domains shown, Fab and IgG formats under one id) VH: QVQLVQSGAEVKKPGSSVKVSCKASGYAFSSHWMNWVRQAPGQGLEWMGRIYPGDGDTNYAWKFQGRVTITADESTSTAYMELSSLRSEDTAVYYCARLLRNQPGESYAMDYWGQGTLVTVSS VL: GVVMTQTPLSLSVTPGQPASISCRSSSSLVHSNGYTYLHWYLQKPGQSPQLLIYKVSNRKSGVPDRFSGSGSGTDFTLKISRVEAEDVGVYYCSQSTRVPYTFGQGTKLEIK")
0.399
>>> measured_value("AL2p-8 (antibody, V domains shown, Fab and IgG formats under one id) VH: QVQLVQSGAEVKKPGSSVKVSCKASGYAFSLSWMNWVRQAPGQGLEWMGRIYPGDGDTNYARKFQGRVTITADESTSTAYMELSSLRSEDTAVYYCARLLRNQPGSSYAMDYWGQGTLVTVSS VL: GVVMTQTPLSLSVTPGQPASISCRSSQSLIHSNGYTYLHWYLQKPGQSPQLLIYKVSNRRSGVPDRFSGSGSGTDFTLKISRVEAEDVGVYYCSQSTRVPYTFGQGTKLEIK")
0.3
